// reported kon for each item listed
measurement_target: T1, Monomeric 8-histidine tagged human EGFRvIII extracellular domain (human, UniProt P00533 298-645)
T1 construct: Analyte in all SPR assays; not shown: 8-histidine tag
test_summary: SPR, captured by anti-mouse Fc, 37 C
observable: kon (M⁻¹ s⁻¹)

binder: 19A9 (antibody, V domains shown, Hybridoma supernatant (AlivaMab mouse); captured/detected via mouse Fc) VH: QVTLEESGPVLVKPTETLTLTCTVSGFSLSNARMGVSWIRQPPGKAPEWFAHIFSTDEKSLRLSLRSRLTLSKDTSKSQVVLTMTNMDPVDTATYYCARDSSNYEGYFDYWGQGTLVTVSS VL: EVVMTQSPATLSVSPGERATLSCRASQSVNRNLAWYQQKPGQAPRLLIFGTSTRATGIPARFSGSGSGTEFTLTIDSLQSEHSGLYYCQQYNDWPFTFGPGTKVDIK
observable: kon
quantity_unit: M⁻¹ s⁻¹
obs_value: 55800

binder: 30D8 (antibody, V domains shown, Hybridoma supernatant (AlivaMab mouse); captured/detected via mouse Fc) VH: EVQLVESGGGLVKPGGSLRLSCEASGFTFSDAWMSWVRQAPGKGLEWVGRIKSKTDGGTTDYVVPLNGRFIISRDDSRNTLYLQLNNLKTEDTAVYYCTTVPGSYGYWGQGTLVTVSS VL: DIVMTQSPLSLPVTPGEPASISCRSSQSLLHNKRNNYLDWFLQKPGQSPQLLIYLASNRASGVPDRFSGGGSGTDFTLKISRVEAEDVGVYYCMQAQQTPITFGQGTRLEIK
observable: kon
quantity_unit: M⁻¹ s⁻¹
obs_value: 161000

binder: 32G8 (antibody, V domains shown, Hybridoma supernatant (AlivaMab mouse); captured/detected via mouse Fc) VH: EVNLVESGGGLVKPGGSLRLSCEASGFTFSYAWMSWVRQAPGKGLEWVGRIKSITDGGVIDYAAPVRNRCTISRDDSRNTLYLEMHSLKTEDTAVYYCTTIPGNDDFDMWGQGRMVTVSS VL: DIVLTQSPLSLSVTPGEPASISCRSSQSLLYSNGKNYLDWFLHKPGQSPQLLIYLGSNRASGVPDRFSGSGSGIDFILKISRVEAEDVGVYYCMQAQQTPITFGQGTRLEIK
observable: kon
quantity_unit: M⁻¹ s⁻¹
obs_value: 6820
